Hey, just so you know, these numbers are from paper doi:10.1101/2025.08.29.673196v2.

# study-target: LAG-3 (biotinylated LAG-3 of HTRF LAG-3/MHCII binding assay) (Homo sapiens, UniProt P18627)
# Construct: biotinylated LAG-3 reagent of Revvity HTRF LAG-3/MHCII kit
# Sequence (P18627 23-450 limits assumed): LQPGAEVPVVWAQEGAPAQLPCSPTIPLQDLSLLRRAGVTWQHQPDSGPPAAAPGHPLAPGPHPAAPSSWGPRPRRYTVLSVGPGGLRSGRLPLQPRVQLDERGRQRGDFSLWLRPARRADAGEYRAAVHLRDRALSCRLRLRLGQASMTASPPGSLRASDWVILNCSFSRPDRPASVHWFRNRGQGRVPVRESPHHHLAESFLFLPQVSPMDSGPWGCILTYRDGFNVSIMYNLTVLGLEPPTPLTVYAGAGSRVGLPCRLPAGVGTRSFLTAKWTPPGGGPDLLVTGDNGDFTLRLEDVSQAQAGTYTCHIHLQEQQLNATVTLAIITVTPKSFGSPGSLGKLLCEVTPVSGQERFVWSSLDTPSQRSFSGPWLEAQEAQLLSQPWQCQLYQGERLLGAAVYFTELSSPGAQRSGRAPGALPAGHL
# assay-protocol: HTRF LAG-3/MHCII binding inhibition
pIC50: −log10 of the molar value.
observable: pIC50

compound	measured
Cc1cc(=O)oc2cc(NC(=O)c3cc(NC(=O)c4cccc(C5(C(F)(F)F)CCC5)c4)ccc3Oc3ccc(C(=O)O)cc3)ccc12 [LG-131]	6.22
COc1ccc(OC)c(NC(=O)C(=O)Nc2ccc(Oc3ccc(C(=O)O)cc3)c(C(=O)Nc3ccc4c(C)cc(=O)oc4c3)c2)c1 [LG-164]	6.43

P: Cc1cc(=O)oc2cc(NC(=O)c3cc(NS(=O)(=O)N4CCC(c5ccccc5)CC4)ccc3Oc3ccc(C(=O)O)cc3)ccc12 [LG-193]
Q: Cc1cc(=O)oc2cc(NC(=O)c3cc(NC(=O)c4ccccc4)ccc3Oc3ccc(C(=O)O)cc3)ccc12 [LG-125]
// select label with min value of measured pIC50 from [ P , Q ] Please respond with the label that marks your chosen entry. Q
(Q: 4.68, P: 6.33)
